pIC50 values for the compounds below.
- TARGET_UNDER_TEST: Beta-1 adrenergic receptor (Homo sapiens, UniProt P08588)
- Sequence (P08588 whole entry): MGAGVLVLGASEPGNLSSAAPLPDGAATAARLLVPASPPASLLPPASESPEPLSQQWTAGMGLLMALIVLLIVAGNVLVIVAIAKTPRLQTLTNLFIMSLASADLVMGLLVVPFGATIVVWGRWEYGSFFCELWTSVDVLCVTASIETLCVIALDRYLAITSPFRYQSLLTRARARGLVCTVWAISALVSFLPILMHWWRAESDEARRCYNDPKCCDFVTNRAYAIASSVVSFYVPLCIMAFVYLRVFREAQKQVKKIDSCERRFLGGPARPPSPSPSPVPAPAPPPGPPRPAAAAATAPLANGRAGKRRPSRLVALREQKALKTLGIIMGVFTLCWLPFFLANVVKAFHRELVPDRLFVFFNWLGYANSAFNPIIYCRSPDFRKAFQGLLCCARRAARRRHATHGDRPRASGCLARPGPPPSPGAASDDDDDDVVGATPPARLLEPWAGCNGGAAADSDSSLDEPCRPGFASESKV
- PROTOCOL_DESCRIPTION: DRUGMATRIX: Adrenergic beta1 radioligand binding (ligand: [125I] Cyanopindolol)
- Type: cell membranes, CHO-K1, Membrane
- CONDITION_SUMMARY: Not Active = under 50% inhibition at 10 µM; read-out: IC50
By convention, pIC50 is the negative base-10 log of a molar concentration.

[[record]]
compound = "COC(=O)CCc1ccc(OCC(O)CNC(C)C)cc1 (configuration not stated)"
reported = 6.71


Please examine the following record next.
Ask: Jot down pIC50 (Beta-1 adrenergic receptor (Homo sapiens, UniProt P08588)) of Cc1cc2c(OCC(CNC(C)(C)C)OC(=O)c3ccccc3)cccc2[nH]1 (configuration not stated) .
Reply: 7.33

====

- PROTOCOL_DESCRIPTION: DRUGMATRIX: Nicotinic Acetylcholine radioligand binding (ligand: [125I] Epibatidine)
- Format: cell membranes, Membrane
- CONDITION_SUMMARY: imr-32; Not Active = under 50% inhibition at 10 µM
OBSERVATION_TYPE: Ki

[[record]]
compound = "COC1=C(OC)C(=O)C(CCCCCCCCCCO)=C(C)C1=O [IDEBENONE]"
observation_type = "Ki"
reported = "Not Active"

[[record]]
compound = "NC(=O)C[S+]([O-])C(c1ccccc1)c1ccccc1 (centres undefined) [MODAFINIL]"
observation_type = "Ki"
reported = "Not Active"

[[record]]
compound = "CC(C)(C)NC(=O)[C@H]1CC[C@H]2[C@@H]3CC[C@H]4NC(=O)C=C[C@]4(C)[C@H]3CC[C@]12C [FINASTERIDE]"
observation_type = "Ki"
reported = "Not Active"

[[record]]
compound = "C[C@H]1O[C@@H](n2cc(F)c(=O)[nH]c2=O)[C@H](O)[C@@H]1O [DOXIFLURIDINE]"
observation_type = "Ki"
reported = "Not Active"


====

- TARGET_UNDER_TEST: D(1A) dopamine receptor (Homo sapiens)
- Sequence (P21728 whole entry): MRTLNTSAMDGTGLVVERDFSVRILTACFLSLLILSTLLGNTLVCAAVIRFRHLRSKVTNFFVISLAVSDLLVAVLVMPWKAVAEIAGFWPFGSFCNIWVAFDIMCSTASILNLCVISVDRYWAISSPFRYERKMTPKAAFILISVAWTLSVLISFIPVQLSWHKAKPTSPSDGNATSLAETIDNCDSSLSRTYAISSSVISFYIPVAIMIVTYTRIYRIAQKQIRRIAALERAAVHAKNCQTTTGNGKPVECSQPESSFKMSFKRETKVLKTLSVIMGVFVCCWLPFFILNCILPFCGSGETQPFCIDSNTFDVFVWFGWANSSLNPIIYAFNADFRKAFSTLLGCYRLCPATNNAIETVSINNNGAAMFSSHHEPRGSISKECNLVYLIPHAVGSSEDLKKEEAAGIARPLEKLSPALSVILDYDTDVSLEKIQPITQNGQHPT
- PROTOCOL_DESCRIPTION: DRUGMATRIX: Dopamine D1 radioligand binding (ligand: [3H] SCH-23390)
- Assay type: cell membranes, CHO, Membrane
- CONDITION_SUMMARY: Not Active = under 50% inhibition at 10 µM; read-out: IC50
OBSERVATION_TYPE: IC50

Ask: Answer with the recorded IC50 of C[C@@H](CO)NC(=O)[C@@H]1C=C2c3cccc4[nH]cc(c34)C[C@H]2N(C)C1 only.
Reply: 5.9 µM

====

- PROTOCOL_DESCRIPTION: DRUGMATRIX: Sodium/nucleoside co-transporter radioligand binding (ligand: nitrobenzylthioinosine)
- Format: cell membranes, Cavia porcellus, Dunkin-Hartley, Cerebral cortex, Membrane
- CONDITION_SUMMARY: Not Active = under 50% inhibition at 10 µM
OBSERVATION_TYPE: IC50

Some compounds with known IC50 results, for comparison:
[[record]]
compound = "CC(C(=O)O)c1cccc(Oc2ccccc2)c1 (centres undefined) [FENOPROFEN]"
observation_type = "IC50"
reported = "Not Active"

[[record]]
compound = "COc1ccc2c3c1O[C@H]1C[C@@H](O)C=C[C@@]31CCN(C)C2 [GALANTAMINE]"
observation_type = "IC50"
reported = "Not Active"

[[record]]
compound = "NC(=O)N1C(=O)/C(=C(\\O)c2cccs2)c2cc(Cl)ccc21 [TENIDAP]"
observation_type = "IC50"
reported = "Not Active"

[[record]]
compound = "COC(=O)Nc1nc2ccc(C(=O)c3cccs3)cc2[nH]1 [NOCODAZOLE]"
observation_type = "IC50"
reported = "Not Active"

[[record]]
compound = "Brc1c(NC2=NCCN2)ccc2nccnc12 [BRIMONIDINE]"
observation_type = "IC50"
reported = "Not Active"

[[record]]
compound = "C[C@H]1C[C@@H]2[C@H]([C@@H](O)C[C@@]3(C)[C@H]2CC[C@]3(O)C(=O)CO)[C@@]2(C)C=CC(=O)C=C12 [METHYLPREDNISOLONE]"
observation_type = "IC50"
reported = "Not Active"

[[record]]
compound = "Oc1c(Cl)cc(Cl)c(Cl)c1Cc1c(O)c(Cl)cc(Cl)c1Cl [HEXACHLOROPHENE]"
observation_type = "IC50"
reported = "Not Active"

[[record]]
compound = "O=C(Nc1ccc(Br)cc1)c1cc(Br)cc(Br)c1O [TRIBROMSALAN]"
observation_type = "IC50"
reported = "Not Active"


Ask: Tell me its IC50 given CC[C@H]1CN2CCc3cc(OC)c(OC)cc3[C@@H]2C[C@@H]1C[C@H]1NCCc2cc(OC)c(OC)cc21 [EMETINE] as the entry.
Reply: Not Active

Ask: Respond only with IC50 recorded for CCCCNc1ccc(C(=O)OCCN(C)C)cc1 [TETRACAINE]
Reply: Not Active

Ask: Kindly indicate its recorded IC50. Item: CC(C(=O)O)c1ccc2oc(-c3ccc(Cl)cc3)nc2c1 (centres undefined) [BENOXAPROFEN]
Reply: Not Active
